- Test system: TK-10 renal
- ASSAY_TEXT: NCI tumour cell line growth inhibition, 48 h
Entries and their GI50 values follow.

[
  {
    "COMPOUND": "O=C1Nc2cc(Cl)ccc2Oc2cc(Oc3ccccc3)ccc21",
    "GI50": "12 µM"
  },
  {
    "COMPOUND": "CC(C)c1ccc2c(N=Nc3ccc(S(N)(=O)=O)cc3)c(O)[nH]c2c1",
    "GI50": "> 12.1 µM"
  },
  {
    "COMPOUND": "COc1ccc(S(=O)(=O)N2CCN(C(=O)OCc3ccccc3)CC2C(=O)NO)cc1 (centres undefined)",
    "GI50": "10.9 µM"
  },
  {
    "COMPOUND": "O=C(CCc1nnc(-c2c(Cl)cccc2Cl)o1)c1nc2ccccc2[nH]1",
    "GI50": "16.4 µM"
  },
  {
    "COMPOUND": "COC1OCC(OS(=O)(=O)c2ccc(C)cc2)C(OC(=O)c2ccccc2)C1OC(=O)c1ccccc1 (centres undefined)",
    "GI50": "> 100 µM"
  },
  {
    "COMPOUND": "NC(=O)c1nnn(Cc2cc(Cl)c(C(=O)c3ccc(Cl)cc3)c(Cl)c2)c1N",
    "GI50": "> 9.09 µM"
  },
  {
    "COMPOUND": "COc1ccccc1CNCCCN1C(=O)c2ccc3c4c(ccc(c24)C1=O)C(=O)N(CCCNCCCCNCCCCN)C3=O",
    "GI50": "3.71 µM"
  },
  {
    "COMPOUND": "CN(CCCCCl)P(=O)(OCc1ccc([N+](=O)[O-])o1)C(F)(F)c1ccc(CC(=O)N[C@@H](CC(=O)O)C(=O)N[C@@H](Cc2ccc(C(F)(F)P(=O)(OCc3ccc([N+](=O)[O-])o3)N(C)CCCCCl)cc2)C(N)=O)cc1 (some centres undefined)",
    "GI50": "76.1 µM"
  },
  {
    "COMPOUND": "CN(C)c1ccc(/C=C(\\C#N)c2cc3ccccc3n2C)cc1",
    "GI50": "> 100 µM"
  }
]

* * *

- System: MDA-MB-435
- ASSAY_TEXT: NCI tumour cell line growth inhibition, 48 h
Entries and their TGI values follow.
MEASURED_ENDPOINT: TGI (µM)

[
  {
    "MOLECULE": "Cc1ccc(Cl)cc1Nc1nc(C(F)(F)F)ccc1C(=O)N/N=C/c1c(Cl)cccc1Cl",
    "SYSTEM_NAME": "MDA-MB-435",
    "MEASUREMENT_UNIT": "µM",
    "VALUE_QUALIFIER": "=",
    "RECORDED_MEASUREMENT": 11.6
  },
  {
    "MOLECULE": "CN(C)CCSC(=Nc1ccccc1)N1C=COC=C1",
    "SYSTEM_NAME": "MDA-MB-435",
    "MEASUREMENT_UNIT": "µM",
    "VALUE_QUALIFIER": "=",
    "RECORDED_MEASUREMENT": 34.8
  },
  {
    "MOLECULE": "C[C@@H]1CCC2[C@@H](C)[C@H](O[C@H]3O[C@@H]4O[C@@]5(C)CCC6[C@H](C)CCC([C@H]3C)[C@]64OO5)O[C@@H]3O[C@@]4(C)CCC1[C@@]23OO4 (stereo not given in full)",
    "SYSTEM_NAME": "MDA-MB-435",
    "MEASUREMENT_UNIT": "µM",
    "VALUE_QUALIFIER": "=",
    "RECORDED_MEASUREMENT": 21.6
  },
  {
    "MOLECULE": "Cc1cc(Cl)ccc1NC(=O)/C(Cl)=C(/Cl)C(=O)O",
    "SYSTEM_NAME": "MDA-MB-435",
    "MEASUREMENT_UNIT": "µM",
    "VALUE_QUALIFIER": "=",
    "RECORDED_MEASUREMENT": 45.9
  },
  {
    "MOLECULE": "O=C(O)CN(CC(=O)O)Cc1cc2c(cc1O)Oc1cc(O)c(CN(CC(=O)O)CC(=O)O)cc1C21OC(=O)c2ccccc21",
    "SYSTEM_NAME": "MDA-MB-435",
    "MEASUREMENT_UNIT": "µM",
    "VALUE_QUALIFIER": ">",
    "RECORDED_MEASUREMENT": 100
  },
  {
    "MOLECULE": "CCOC(=O)C1(Cc2ccccc2)Cc2cc3c(cc2C1=O)CCC3 (stereo not given)",
    "SYSTEM_NAME": "MDA-MB-435",
    "MEASUREMENT_UNIT": "µM",
    "VALUE_QUALIFIER": ">",
    "RECORDED_MEASUREMENT": 100
  },
  {
    "MOLECULE": "Nc1ccccc1/C=N\\Nc1ccccc1",
    "SYSTEM_NAME": "MDA-MB-435",
    "MEASUREMENT_UNIT": "µM",
    "VALUE_QUALIFIER": ">",
    "RECORDED_MEASUREMENT": 100
  },
  {
    "MOLECULE": "CCCCCCCCCCCC1=NC(C)(C)CN1CCO",
    "SYSTEM_NAME": "MDA-MB-435",
    "MEASUREMENT_UNIT": "µM",
    "VALUE_QUALIFIER": "=",
    "RECORDED_MEASUREMENT": 6.98
  },
  {
    "MOLECULE": "COCC[N+](CCNC(=O)c1cccc2c(N)c3cccc(C)c3nc12)(CCOC)Cc1ccc([N+](=O)[O-])cc1",
    "SYSTEM_NAME": "MDA-MB-435",
    "MEASUREMENT_UNIT": "µM",
    "VALUE_QUALIFIER": "=",
    "RECORDED_MEASUREMENT": 83.4
  },
  {
    "MOLECULE": "C=CC1(c2ccc3ccccc3c2)OCC(CC)(CC)CO1",
    "SYSTEM_NAME": "MDA-MB-435",
    "MEASUREMENT_UNIT": "µM",
    "VALUE_QUALIFIER": "=",
    "RECORDED_MEASUREMENT": 65.7
  },
  {
    "MOLECULE": "O/N=C(\\C=N\\O)c1ccc2c(c1)Sc1ccccc1O2",
    "SYSTEM_NAME": "MDA-MB-435",
    "MEASUREMENT_UNIT": "µM",
    "VALUE_QUALIFIER": "=",
    "RECORDED_MEASUREMENT": 33.9
  },
  {
    "MOLECULE": "CN(C)C1(C(=O)O)CC1",
    "SYSTEM_NAME": "MDA-MB-435",
    "MEASUREMENT_UNIT": "µM",
    "VALUE_QUALIFIER": ">",
    "RECORDED_MEASUREMENT": 100
  },
  {
    "MOLECULE": "Cc1ccc(-c2c(C#N)c(-c3ccc([N+](=O)[O-])cc3)c(C#N)c(=O)n2NS(=O)(=O)c2ccc(C)cc2)cc1",
    "SYSTEM_NAME": "MDA-MB-435",
    "MEASUREMENT_UNIT": "µM",
    "VALUE_QUALIFIER": ">",
    "RECORDED_MEASUREMENT": 100
  },
  {
    "MOLECULE": "COc1cc(C2SCC(=O)N2c2ccc(-c3ccc(-n4c(-c5ccccc5)nc5ccccc5c4=O)cc3)cc2)ccc1O (stereo not given)",
    "SYSTEM_NAME": "MDA-MB-435",
    "MEASUREMENT_UNIT": "µM",
    "VALUE_QUALIFIER": ">",
    "RECORDED_MEASUREMENT": 100
  },
  {
    "MOLECULE": "O=C(CC(=O)N(C(=O)c1ccccc1)c1ccc(Cl)cc1)N/N=C\\c1ccccc1O",
    "SYSTEM_NAME": "MDA-MB-435",
    "MEASUREMENT_UNIT": "µM",
    "VALUE_QUALIFIER": ">",
    "RECORDED_MEASUREMENT": 100
  },
  {
    "MOLECULE": "CCCn1cc(C2=C(c3cn(C)c4ccccc34)C(=O)NC2=O)c2ccccc21",
    "SYSTEM_NAME": "MDA-MB-435",
    "MEASUREMENT_UNIT": "µM",
    "VALUE_QUALIFIER": "=",
    "RECORDED_MEASUREMENT": 0.691
  },
  {
    "MOLECULE": "COc1ccccc1CNCCCN1C(=O)c2ccc3c4c(ccc(c24)C1=O)C(=O)N(CCCNCCCCNCCCCN)C3=O",
    "SYSTEM_NAME": "MDA-MB-435",
    "MEASUREMENT_UNIT": "µM",
    "VALUE_QUALIFIER": "=",
    "RECORDED_MEASUREMENT": 3.37
  },
  {
    "MOLECULE": "CN1C[C@H]2[C@@H](C1=O)[C@H](c1ccc([N+](=O)[O-])cc1)ON2C",
    "SYSTEM_NAME": "MDA-MB-435",
    "MEASUREMENT_UNIT": "µM",
    "VALUE_QUALIFIER": ">",
    "RECORDED_MEASUREMENT": 100
  },
  {
    "MOLECULE": "COc1ccc2c(C)cc(N/N=C/c3sccc3C)nc2c1",
    "SYSTEM_NAME": "MDA-MB-435",
    "MEASUREMENT_UNIT": "µM",
    "VALUE_QUALIFIER": "=",
    "RECORDED_MEASUREMENT": 35.4
  },
  {
    "MOLECULE": "Cn1cc(C2=C(c3c4n(c5ccccc35)CC(CN)C4)C(=O)NC2=O)c2ccccc21 (stereo not given)",
    "SYSTEM_NAME": "MDA-MB-435",
    "MEASUREMENT_UNIT": "µM",
    "VALUE_QUALIFIER": "=",
    "RECORDED_MEASUREMENT": 4.72
  }
]
